Data provenance: paper PMC2927421

Molecular target: T1, SH2 domain of Phospholipase Cγ1 (recombinant, on protein microarray) (human)
T1 chain: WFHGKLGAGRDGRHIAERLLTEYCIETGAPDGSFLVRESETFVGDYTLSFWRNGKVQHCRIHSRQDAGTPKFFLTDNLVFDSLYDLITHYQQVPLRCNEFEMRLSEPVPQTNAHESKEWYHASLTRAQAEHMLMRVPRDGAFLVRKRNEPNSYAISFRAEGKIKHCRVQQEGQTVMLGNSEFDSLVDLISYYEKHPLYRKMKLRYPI
Assay: tandem NC SH2 domains
pKd: −log10 of the molar value. Where no end group is shown, it is not given here. [ ]: non-standard residue; d: D form. pY = N[C@@H](Cc1ccc(OP(=O)(O)O)cc1)C(=O)O
QUANTITY: pKd

# BINDER, VALUE_MEASURED
data = [
    ("KYVDSEGHL[pY]TVPIREQG (peptide, UniProt Q03135 5-22, looked up, also: fluorescent label (position not given here), caveolin-1 (Cav1), human, residues 5-22; also called Tyr14-Cav1 phosphopeptide (18 amino acids); source: synthetic peptide, purified to >95% by preparative reverse phase HPLC) [fluorescently labeled Tyr14-Cav1 phosphopeptide (residues 5-22 of Cav1, phosphorylated on Tyr14)]", 6.32),
]
